- measured.target: CaV3.1 (Homo sapiens, UniProt O43497)
- Construct: expressed in transfected cells; host or cells: unnamed doxycycline-inducible cell line
- Sequence (O43497 whole entry): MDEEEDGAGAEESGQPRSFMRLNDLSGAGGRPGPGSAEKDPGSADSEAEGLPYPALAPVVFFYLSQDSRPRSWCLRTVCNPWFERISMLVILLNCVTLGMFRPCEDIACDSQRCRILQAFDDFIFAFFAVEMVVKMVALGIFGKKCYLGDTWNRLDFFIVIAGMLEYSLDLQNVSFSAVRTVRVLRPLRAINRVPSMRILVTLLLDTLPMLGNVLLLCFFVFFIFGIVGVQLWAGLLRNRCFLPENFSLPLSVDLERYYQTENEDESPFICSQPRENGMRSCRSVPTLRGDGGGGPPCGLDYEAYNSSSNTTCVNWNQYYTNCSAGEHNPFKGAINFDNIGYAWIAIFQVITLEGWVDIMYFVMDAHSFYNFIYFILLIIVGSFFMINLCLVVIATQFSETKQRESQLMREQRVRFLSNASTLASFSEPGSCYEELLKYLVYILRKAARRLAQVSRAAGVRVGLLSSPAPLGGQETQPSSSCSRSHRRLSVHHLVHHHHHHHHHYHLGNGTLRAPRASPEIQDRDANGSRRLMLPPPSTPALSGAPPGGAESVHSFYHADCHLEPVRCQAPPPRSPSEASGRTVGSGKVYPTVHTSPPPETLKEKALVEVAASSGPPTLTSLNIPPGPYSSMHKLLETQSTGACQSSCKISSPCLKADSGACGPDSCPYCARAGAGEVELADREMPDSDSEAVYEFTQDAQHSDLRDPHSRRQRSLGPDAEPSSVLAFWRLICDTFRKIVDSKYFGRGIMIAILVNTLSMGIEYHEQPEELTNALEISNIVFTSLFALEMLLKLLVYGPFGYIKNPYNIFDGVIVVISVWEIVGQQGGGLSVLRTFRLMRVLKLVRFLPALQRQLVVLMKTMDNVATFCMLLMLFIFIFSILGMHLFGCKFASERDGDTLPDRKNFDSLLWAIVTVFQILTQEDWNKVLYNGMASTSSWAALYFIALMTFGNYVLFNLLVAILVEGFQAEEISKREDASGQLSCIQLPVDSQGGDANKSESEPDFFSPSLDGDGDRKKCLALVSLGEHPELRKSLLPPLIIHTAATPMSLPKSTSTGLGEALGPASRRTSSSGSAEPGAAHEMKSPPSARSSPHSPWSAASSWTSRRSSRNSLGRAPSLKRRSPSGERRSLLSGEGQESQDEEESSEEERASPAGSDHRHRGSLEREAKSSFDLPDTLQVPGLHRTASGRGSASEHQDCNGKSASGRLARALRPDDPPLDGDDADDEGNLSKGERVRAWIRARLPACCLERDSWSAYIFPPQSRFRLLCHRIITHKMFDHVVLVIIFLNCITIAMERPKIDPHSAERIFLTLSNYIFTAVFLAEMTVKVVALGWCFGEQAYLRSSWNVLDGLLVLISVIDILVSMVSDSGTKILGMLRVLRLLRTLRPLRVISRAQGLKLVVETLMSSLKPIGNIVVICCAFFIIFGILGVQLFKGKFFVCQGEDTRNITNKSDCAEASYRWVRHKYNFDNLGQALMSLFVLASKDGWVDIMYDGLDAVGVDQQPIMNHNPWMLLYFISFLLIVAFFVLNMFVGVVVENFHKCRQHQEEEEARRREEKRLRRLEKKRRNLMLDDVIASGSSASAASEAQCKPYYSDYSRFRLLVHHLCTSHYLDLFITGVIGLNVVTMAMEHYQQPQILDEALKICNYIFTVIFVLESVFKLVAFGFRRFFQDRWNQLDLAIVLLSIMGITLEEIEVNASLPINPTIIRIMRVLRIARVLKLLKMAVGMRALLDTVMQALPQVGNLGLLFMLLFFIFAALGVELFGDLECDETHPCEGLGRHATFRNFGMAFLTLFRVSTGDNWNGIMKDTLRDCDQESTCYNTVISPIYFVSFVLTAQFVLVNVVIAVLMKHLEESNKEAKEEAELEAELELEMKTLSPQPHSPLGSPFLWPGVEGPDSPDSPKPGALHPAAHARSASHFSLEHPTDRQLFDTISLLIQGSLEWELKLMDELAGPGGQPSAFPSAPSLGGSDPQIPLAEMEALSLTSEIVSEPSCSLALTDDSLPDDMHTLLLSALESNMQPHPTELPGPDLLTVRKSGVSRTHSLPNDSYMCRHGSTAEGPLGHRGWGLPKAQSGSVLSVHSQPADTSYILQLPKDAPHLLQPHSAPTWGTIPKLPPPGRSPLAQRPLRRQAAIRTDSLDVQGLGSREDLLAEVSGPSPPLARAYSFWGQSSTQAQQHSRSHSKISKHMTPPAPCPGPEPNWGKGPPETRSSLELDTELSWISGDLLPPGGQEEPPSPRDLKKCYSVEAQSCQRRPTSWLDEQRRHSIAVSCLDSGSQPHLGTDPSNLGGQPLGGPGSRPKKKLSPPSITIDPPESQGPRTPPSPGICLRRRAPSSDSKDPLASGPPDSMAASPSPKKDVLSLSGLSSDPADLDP
- assay.method.text: High-throughput CaV3.1 T-type FLIPR fluorescent assay
- Format: cell-based
- study.conditions: Table 5; Fluo-4 FLIPR
pIC50: −log10 of the molar value.
property.measured: pIC50

For orientation, consider the following solved cases.
>  <compound>
CC(C)(C(=O)Nc1ccc(Oc2ccc(F)c(C(F)(F)F)c2)nc1)S(=O)(=O)c1cccc(OC(F)(F)F)c1 [Compound 119]

>  <measured.target>
CaV3.1 (Homo sapiens, UniProt O43497)

>  <pIC50>
5.24

$$$$
>  <compound>
CC(C)(C(=O)Nc1ccc(Oc2ccc(C(F)(F)F)cn2)nc1)S(=O)(=O)c1cccc(C(F)(F)F)c1 [Compound 120]

>  <measured.target>
CaV3.1 (Homo sapiens, UniProt O43497)

>  <pIC50>
5.24

$$$$

1. CC(C)(C(=O)NCC(O)c1ccc(C(F)(F)F)cc1)S(=O)(=O)c1cccc(C(F)(F)F)c1 (stereo not shown) [Compound 140]
2. CC(C)(CNC(=O)C(C)(C)S(=O)(=O)c1cccc(C(F)(F)F)c1)S(=O)(=O)c1cccc(C(F)(F)F)c1 [Compound 149]
Task: Of the two listed items, which has the higher pIC50? First: 1 Second: 2 Respond using the label that marks the chosen record.
Output: 2
(2: 5.41, 1: 5.09)

---

- measured.target: CaV3.1 (Homo sapiens, UniProt O43497)
- Construct: expressed in transfected cells; host or cells: unnamed doxycycline-inducible cell line
- assay.method.text: High-throughput CaV3.1 T-type FLIPR fluorescent assay
- Assay type: cell-based
- study.conditions: Table 5; Fluo-4 FLIPR
property.measured: IC50 (µM)

Examples with their reported IC50 follow.
>  <compound>
CC(C)(C(=O)N1CCN(c2cc(Cl)cc(Cl)c2)CC1)S(=O)(=O)c1cccc(C(F)(F)F)c1 [Compound 134]

>  <IC50 / µM>
8.69

$$$$
>  <compound>
CC(C)(C(=O)NCc1cccc(C(F)(F)F)c1)S(=O)(=O)c1cccc(C(F)(F)F)c1 [Compound 124]

>  <IC50 / µM>
4.25

$$$$
>  <compound>
CC(C)(CCN1CCn2nc(C(F)(F)F)cc2C1=O)S(=O)(=O)c1cccc(C(F)(F)F)c1 [Compound 187]

>  <IC50 / µM>
5.05

$$$$
>  <compound>
CC(C)(C(=O)N1CCC(c2ccc(C(F)(F)F)cc2)CC1)S(=O)(=O)c1cccc(C(F)(F)F)c1 [Compound 136]

>  <IC50 / µM>
4.4

$$$$
>  <compound>
CC(C)(C(=O)Nc1ccc(Oc2ccc(C(F)(F)F)nc2)nc1)S(=O)(=O)c1cccc(OC(F)(F)F)c1 [Compound 122]

>  <IC50 / µM>
4.89

$$$$

I. CN(CCc1c[nH]c2ccc(F)cc12)C(=O)C(C)(C)S(=O)(=O)c1cccc(C(F)(F)F)c1 [Compound 135]
II. CC(C)(C(=O)NC1CCN(c2ccc(C(F)(F)F)cc2)CC1)S(=O)(=O)c1cccc(C(F)(F)F)c1 [Compound 137]
Task: Of the two listed items, I and II , which carries the larger IC50 figure? # reply format: chosen label
Output: I
(I: 7.95 µM, II: 4.53 µM)

---

- measured.target: CaV2.2 (Homo sapiens, UniProt Q00975)
- Construct: expressed in transfected cells; host or cells: unnamed doxycycline-inducible cell line
- assay.method.text: High-throughput CaV2.2/Kir2.3 FLIPR fluorescent assay
- Format: cell-based
- study.conditions: Table 4; Fluo-4 FLIPR; closed or inactivated state not stated; read-out: FLIPR data CaV2.2
property.measured: IC50 (µM)

Study these solved cases before continuing.
>  <compound>
Cn1nc(C(F)(F)F)cc1C(=O)NCc1cccc(S(=O)(=O)c2cccc(C(F)(F)F)c2)c1 [Compound 22]

>  <IC50 [µM]>
0.22

$$$$
>  <compound>
O=C(NCc1cccc(S(=O)(=O)c2cccc(C(F)(F)F)c2)c1)c1ccnc(C(F)(F)F)c1 [Compound 31]

>  <IC50 [µM]>
0.39

$$$$
>  <compound>
O=C(NCc1ccccc1S(=O)(=O)c1cccc(C(F)(F)F)c1)[C@@H]1C[C@@H](C2CCCCC2)CN1 [Compound 75]

>  <IC50 [µM]>
1.06

$$$$

a. O=C(NCc1ccc(S(=O)(=O)c2cccc(C(F)(F)F)c2)cc1)c1ccc(Cl)c(OC(F)(F)F)c1 [Compound 15]
b. NC1(C(=O)NCc2ccc(S(=O)(=O)c3cccc(C(F)(F)F)c3)cc2)CCS(=O)(=O)CC1 [Compound 61]
c. O=C(CCC(F)(F)F)NCc1cccc(S(=O)(=O)c2cccc(C(F)(F)F)c2)c1 [Compound 54]
d. O=C(NCc1ccc(S(=O)(=O)c2cccc(C(F)(F)F)c2)cc1)[C@@H]1C[C@@H](F)CN1 [Compound 68]
e. O=C(NCc1ccccc1S(=O)(=O)c1cccc(C(F)(F)F)c1)[C@@H]1C[C@@H](F)CN1 [Compound 69]
Task: Rank items: key IC50, increasing. Labels, ranked as asked.
Output: c, a, d, b, e
(c: 0.4 µM, a: 0.74 µM, d: 2.3 µM, b: 4.68 µM, e: 9.14 µM)

I. CS(=O)(=O)c1nc(C(F)(F)F)ccc1C(=O)NCc1ccc(S(=O)(=O)c2cccc(C(F)(F)F)c2)cc1 [Compound 6]
II. O=C(NCc1ccccc1S(=O)(=O)c1cccc(C(F)(F)F)c1)[C@H]1CCCN1 [Compound 78]
Task: Select the item whose IC50 value is smaller, choosing between I and II . Answer with the label corresponding to your selection.
Output: I

a. O=C(CCC(F)(F)F)NCc1cc(S(=O)(=O)c2cccc(C(F)(F)F)c2)ccn1 [Compound 114]
b. O=C(NCc1cccc(S(=O)(=O)c2cccc(C(F)(F)F)c2)c1)c1cn2cc(C(F)(F)F)ccc2n1 [Compound 32]
Task: For the pair a and b , which member has the lower IC50 number? # respond with the chosen item's label
Output: b
(b: 0.16 µM, a: 3.32 µM)

a. O=C(NCc1ccc(S(=O)(=O)c2cccc(C(F)(F)F)c2)cn1)c1ccnc(C(F)(F)F)c1 [Compound 102]
b. O=C(NCc1ccc(S(=O)(=O)c2cccc(C(F)(F)F)c2)cn1)c1ccc(Cl)c(F)c1 [Compound 88]
Task: Rank a against b by their IC50 values and give the higher one. Your answer should be the label of the entry you select.
Output: a
(a: 1.41 µM, b: 0.81 µM)

---

- measured.target: CaV2.2 (Homo sapiens)
- Construct: expressed in transfected cells; host or cells: unnamed doxycycline-inducible cell line
- assay.method.text: High-throughput CaV2.2/Kir2.3 FLIPR fluorescent assay
- Assay type: cell-based
- study.conditions: Table 4; Fluo-4 FLIPR; closed or inactivated state not stated; read-out: FLIPR data CaV2.2
pIC50: −log10 of the molar value.
property.measured: pIC50

>  <molecule.smiles>
O=C(NCc1ccccc1S(=O)(=O)c1cccc(C(F)(F)F)c1)c1ccnc(C(F)(F)F)n1

>  <property.measured>
pIC50

>  <value>
5.76

$$$$
>  <molecule.smiles>
O=C(NCc1ccc(S(=O)(=O)c2cccc(C(F)(F)F)c2)cc1)c1ccc(Cl)c(F)c1

>  <property.measured>
pIC50

>  <value>
6.12

$$$$

I. O=C(CCC(F)(F)F)NCc1ccccc1S(=O)(=O)c1cccc(C(F)(F)F)c1
II. CC(C)S(=O)(=O)c1cc(C(F)(F)F)cnc1C(=O)NCc1ccc(S(=O)(=O)c2cccc(C(F)(F)F)c2)cc1
III. O=C(NCc1ccccc1S(=O)(=O)c1cccc(C(F)(F)F)c1)c1ccc(C(F)(F)F)cn1
IV. CS(=O)(=O)c1cc(C(F)(F)F)ccc1C(=O)NCc1cccc(S(=O)(=O)c2cccc(C(F)(F)F)c2)c1
Task: Ranking field: pIC50; order: falling. Lab note: record answer as labels in requested order.
Output: II, IV, III, I
(II: 7.00, IV: 6.72, III: 6.13, I: 5.57)

---

- measured.target: CaV3.1 (Homo sapiens)
- Construct: expressed in transfected cells; host or cells: unnamed doxycycline-inducible cell line
- assay.method.text: High-throughput CaV3.1 T-type FLIPR fluorescent assay
- Format: cell-based
- study.conditions: Table 4; Fluo-4 FLIPR
pIC50: −log10 of the molar value.
property.measured: pIC50

Examples from the recorded data:
>  <molecule.smiles>
CC(C)(C(=O)NCc1ccc(S(=O)(=O)c2cccc(C(F)(F)F)c2)cn1)S(=O)(=O)c1cccc(C(F)(F)F)c1

>  <pIC50>
5.77

$$$$
>  <molecule.smiles>
COc1cc(C(=O)NCc2cccc(S(=O)(=O)c3cccc(C(F)(F)F)c3)c2)cc(Cl)n1

>  <pIC50>
5.95

$$$$
>  <molecule.smiles>
O=C(NCc1ccc(S(=O)(=O)c2cccc(C(F)(F)F)c2)cc1)c1ccnc(C(F)(F)F)n1

>  <pIC50>
5.55

$$$$
>  <molecule.smiles>
CC(C)S(=O)(=O)c1cc(C(F)(F)F)cnc1C(=O)NCc1ccc(S(=O)(=O)c2cccc(C(F)(F)F)c2)cn1

>  <pIC50>
5.81

$$$$
>  <molecule.smiles>
O=C1c2ccc(C(F)(F)F)nc2CN1Cc1cccc(S(=O)(=O)c2cccc(C(F)(F)F)c2)c1

>  <pIC50>
5.21

$$$$
>  <molecule.smiles>
CS(=O)(=O)c1cc(C(F)(F)F)cnc1C(=O)NCc1ccc(S(=O)(=O)c2cccc(C(F)(F)F)c2)cc1

>  <pIC50>
5.87

$$$$

A. Cn1nc(C(F)(F)F)cc1C(=O)NCc1cc(S(=O)(=O)c2cccc(C(F)(F)F)c2)ccn1
B. O=C(NCc1cccc(S(=O)(=O)c2cccc(C(F)(F)F)c2)c1)c1ccc(C(F)(F)F)cn1
C. CS(=O)(=O)c1cc(C(F)(F)F)ccc1C(=O)NCc1ccccc1S(=O)(=O)c1cccc(C(F)(F)F)c1
D. O=C(NCc1cccc(S(=O)(=O)c2cccc(C(F)(F)F)c2)c1)c1ccnc(C(F)(F)F)n1
E. O=C(NCc1ccccc1S(=O)(=O)c1cccc(C(F)(F)F)c1)c1ccc(F)c(Cl)c1
Task: Number of compounds to sort: 5. Sort criterion: pIC50, ascending. Write the labels out in the order the request specifies.
Output: A, D, B, E, C

A. O=C(NCc1ccc(S(=O)(=O)c2cccc(C(F)(F)F)c2)cn1)[C@H]1C[C@@H](C2CCCCC2)CN1
B. O=C(NCc1ccc(S(=O)(=O)c2cccc(C(F)(F)F)c2)cc1)c1ccnn1CC(F)(F)F
Task: Recorded pIC50 values differ for A and B ; which one is higher? Answer with the label corresponding to your selection.
Output: B
(B: 5.64, A: 5.16)

1. O=C(NCc1ccccc1S(=O)(=O)c1cccc(C(F)(F)F)c1)[C@@H]1C[C@@H](C2CCCCC2)CN1
2. O=C(NCc1ccc(S(=O)(=O)c2cccc(C(F)(F)F)c2)cc1)c1ccc(Cl)c(F)c1
Task: Could you check which of 1 and 2 has a smaller value for pIC50? Label of pick, please.
Output: 1

a. O=C(NCc1ccccc1S(=O)(=O)c1cccc(C(F)(F)F)c1)c1ccc(Cl)c(F)c1
b. O=C(NCc1cccc(S(=O)(=O)c2cccc(C(F)(F)F)c2)c1)c1cn2cc(C(F)(F)F)ccc2n1
Task: Hey, between a and b which has a smaller measured pIC50? Indicate your choice by writing its label.
Output: b

a. CS(=O)(=O)c1nc(C(F)(F)F)ccc1C(=O)NCc1ccc(S(=O)(=O)c2cccc(C(F)(F)F)c2)cc1
b. O=C(NCc1cc(S(=O)(=O)c2cccc(C(F)(F)F)c2)ccn1)[C@@H]1C[C@@H](C2CCCCC2)CN1
c. Cn1nc(C(F)(F)F)cc1C(=O)NCc1ccc(S(=O)(=O)c2cccc(C(F)(F)F)c2)cc1
d. O=C(NCc1ccc(S(=O)(=O)c2cccc(C(F)(F)F)c2)cc1)[C@@H]1C[C@@H](C2CCCCC2)CN1
Task: Order the entries by their reported pIC50, beginning at the minimum. // format: requested-order list of labels
Output: d, b, a, c

1. O=C(NCc1cccc(S(=O)(=O)c2cccc(C(F)(F)F)c2)c1)c1cc(F)cc(Cl)c1
2. N[C@@H]1CCCC[C@H]1C(=O)NCc1ccc(S(=O)(=O)c2cccc(C(F)(F)F)c2)cc1
3. Cn1nc(C(F)(F)F)cc1C(=O)NCc1cccc(S(=O)(=O)c2cccc(C(F)(F)F)c2)c1
Task: Please list these in order of increasing pIC50. Thank you! Put the labels in the requested order and write them down.
Output: 2, 3, 1
(2: 5.08, 3: 5.52, 1: 5.80)
